# Tested on: HUVEC
# assay_protocol: MTT assay, cell proliferation
# Format: cell-based, Human
# reported_conditions: Homo sapiens, 24 h, read-out: IC50, inhibition of cell proliferation
readout_label: pIC50
Answers are plain numbers, as −log10 of the molar value.

Recorded results for 10 compounds are shown here.
CC(=O)Nc1ccc(SC(=O)/C(C)=C\CC23OC(C)(C)C4CC(C=C5C(=O)c6c(O)c7c(c(CC=C(C)C)c6OC542)OC(C)(CCC=C(C)C)C=C7)C3=O)cc1 (centres unmarked) [Compound 30, 4-Acetamidophenyl gambogthioate]
5.99
C=CCc1ccc(OC(=O)/C(C)=C\CC23OC(C)(C)C4CC(C=C5C(=O)c6c(O)c7c(c(CC=C(C)C)c6OC542)OC(C)(CCC=C(C)C)C=C7)C3=O)c(OC)c1 (centres unmarked) [Compound 3, 4-Allyl-2-methoxyphenyl gambogate]
4.28
CC(C)=CCCC1(C)C=Cc2c(O)c3c(c(CC=C(C)C)c2O1)OC12C(=CC4CC1C(C)(C)OC2(C/C=C(/C)C(=O)Oc1ccc(C)c([N+](=O)[O-])c1)C4=O)C3=O (centres unmarked) [Compound 1, 4-Methyl-3-nitrophenyl gambogate]
4.34
CC(C)=CCCC1(C)C=Cc2c(O)c3c(c(CC=C(C)C)c2O1)OC12C(=CC4CC1C(C)(C)OC2(C/C=C(/C)C(=O)Oc1cc2ccccc2oc1=O)C4=O)C3=O (centres unmarked) [Compound 6, Coumarin-3-gambogate]
4.84
CC(C)=CCCC1(C)C=Cc2c(O)c3c(c(CC=C(C)C)c2O1)OC12C(=CC4CC1C(C)(C)OC2(C/C=C(/C)C(=O)n1cccn1)C4=O)C3=O (centres unmarked) [Compound 33, 1-Gambogyl pyrazole]
6.24
CC(C)=CCCC1(C)C=Cc2c(O)c3c(c(CC=C(C)C)c2O1)OC12C(=CC4CC1C(C)(C)OC2(C/C=C(/C)C(=O)Oc1c(Br)ccc(F)c1F)C4=O)C3=O (centres unmarked) [Compound 2, 6-Bromo-2,3-difluorophenyl gambogate]
4.50
CC(C)=CCCC1(C)C=Cc2c(O)c3c(c(CC=C(C)C)c2O1)OC12C(=CC4CC1C(C)(C)OC2(C/C=C(/C)C(=O)Oc1ccc(C(=O)CBr)cc1)C4=O)C3=O (centres unmarked) [Compound 16, 4-(2-Bromoacetyl)phenyl gambogate]
4.92
CC(C)=CCCC1(C)C=Cc2c(O)c3c(c(CC=C(C)C)c2O1)OC12C(=CC4CC1C(C)(C)OC2(C/C=C(/C)C(=O)Oc1cccc(C)c1[N+](=O)[O-])C4=O)C3=O (centres unmarked) [Compound 14, 3-Methyl-2-nitrophenyl gambogate]
4.38
CC(=O)Nc1ccc(NC(=O)/C(C)=C\CC23OC(C)(C)C4CC(C=C5C(=O)c6c(O)c7c(c(CC=C(C)C)c6OC542)OC(C)(CCC=C(C)C)C=C7)C3=O)cc1 (centres unmarked) [Compound 35, N-(4-acetamidophenyl) gambogamide]
6.70
CC(=O)Nc1ccc(OC(=O)/C(C)=C\CC23OC(C)(C)C4CC(C=C5C(=O)c6c(O)c7c(c(CC=C(C)C)c6OC542)OC(C)(CCC=C(C)C)C=C7)C3=O)cc1 (centres unmarked) [Compound 4, 4-Acetamidephenyl gambogate]
5.93

Record pIC50 per entry; entries follow.
1. CC(C)=CCCC1(C)C=Cc2c(O)c3c(c(CC=C(C)C)c2O1)OC12C(=CC4CC1C(C)(C)OC2(C/C=C(/C)C(=O)Oc1ccc(NC(=O)CCCl)cc1)C4=O)C3=O (centres unmarked) [Compound 9]
2. CCc1ccc(OC(=O)/C(C)=C\CC23OC(C)(C)C4CC(C=C5C(=O)c6c(O)c7c(c(CC=C(C)C)c6OC542)OC(C)(CCC=C(C)C)C=C7)C3=O)cc1 (centres unmarked) [Compound 21, 4-Ethylphenyl gambogate]
3. CC(C)=CCCC1(C)C=Cc2c(O)c3c(c(CC=C(C)C)c2O1)OC12C(=CC4CC1C(C)(C)OC2(C/C=C(/C)C(=O)Nc1nccs1)C4=O)C3=O (centres unmarked) [Compound 32, Thiazol-2-gambogamide]
4. CC(=O)Nc1ccccc1OC(=O)/C(C)=C\CC12OC(C)(C)C3CC(C=C4C(=O)c5c(O)c6c(c(CC=C(C)C)c5OC431)OC(C)(CCC=C(C)C)C=C6)C2=O (centres unmarked) [Compound 27, 2-Acetamidophenyl gambogate]
5. COc1ccc(-c2csc(NC(=O)/C(C)=C\CC34OC(C)(C)C5CC(C=C6C(=O)c7c(O)c8c(c(CC=C(C)C)c7OC653)OC(C)(CCC=C(C)C)C=C8)C4=O)n2)cc1 (centres unmarked) [Compound 31, 4-(4-Methoxyphenyl)thiazol-2-gambogamide]
6. COCCc1ccc(OC(=O)/C(C)=C\CC23OC(C)(C)C4CC(C=C5C(=O)c6c(O)c7c(c(CC=C(C)C)c6OC542)OC(C)(CCC=C(C)C)C=C7)C3=O)cc1 (centres unmarked) [Compound 18, 4-(2-Methoxyethyl)phenyl gambogate]

5.37
4.15
5.96
6.30
4.52
4.98

* * *

Hi there, I'd appreciate the recorded IC50 for every entry that follows.
# Tested on: HCT116
# assay_protocol: MTT assay, cell proliferation
# Assay type: cell-based
# reported_conditions: Homo sapiens, HCT-116, 24 h, read-out: IC50, inhibition of cell proliferation
Answers are plain numbers, in µM.

Recorded results for 3 compounds are shown here.
CC(=O)Nc1ccc(OC(=O)/C(C)=C\CC23OC(C)(C)C4CC(C=C5C(=O)c6c(O)c7c(c(CC=C(C)C)c6OC542)OC(C)(CCC=C(C)C)C=C7)C3=O)cc1 (stereo not shown) [Compound 4, 4-Acetamidephenyl gambogate]
0.48
CC(=O)Nc1ccccc1OC(=O)/C(C)=C\CC12OC(C)(C)C3CC(C=C4C(=O)c5c(O)c6c(c(CC=C(C)C)c5OC431)OC(C)(CCC=C(C)C)C=C6)C2=O (stereo not shown) [Compound 27, 2-Acetamidophenyl gambogate]
1.05
CC(C)=CCCC1(C)C=Cc2c(O)c3c(c(CC=C(C)C)c2O1)OC12C(=CC4CC1C(C)(C)OC2(C/C=C(/C)C(=O)Oc1c(Br)ccc(F)c1F)C4=O)C3=O (stereo not shown) [Compound 2, 6-Bromo-2,3-difluorophenyl gambogate]
45.3

Okay, next one:
Entry under test: CC(C)=CCCC1(C)C=Cc2c(O)c3c(c(CC=C(C)C)c2O1)OC12C(=CC4CC1C(C)(C)OC2(C/C=C(/C)C(=O)Oc1cccc([N+](=O)[O-])c1)C4=O)C3=O (stereo not shown) [Compound 8, 3-Nitrophenyl gambogate] . Its IC50 was 66.4

* * *

# System: K562
# assay_protocol: MTT assay, cell proliferation
# Assay type: cell-based
# reported_conditions: Homo sapiens, 24 h, read-out: IC50, inhibition of cell proliferation
readout_label: pIC50
One number for each entry, as −log10 of the molar value.

CC(C)=CCCC1(C)C=Cc2c(O)c3c(c(CC=C(C)C)c2O1)OC12C(=CC4CC1C(C)(C)OC2(C/C=C(/C)C(=O)Sc1nccs1)C4=O)C3=O (stereo not drawn) [Compound 29, S-thiazol-2-yl gambogthioate]
6.10
COc1ccc(-c2csc(NC(=O)/C(C)=C\CC34OC(C)(C)C5CC(C=C6C(=O)c7c(O)c8c(c(CC=C(C)C)c7OC653)OC(C)(CCC=C(C)C)C=C8)C4=O)n2)cc1 (stereo not drawn) [Compound 31, 4-(4-Methoxyphenyl)thiazol-2-gambogamide]
4.86
CC(=O)Nc1ccc(SC(=O)/C(C)=C\CC23OC(C)(C)C4CC(C=C5C(=O)c6c(O)c7c(c(CC=C(C)C)c6OC542)OC(C)(CCC=C(C)C)C=C7)C3=O)cc1 (stereo not drawn) [Compound 30, 4-Acetamidophenyl gambogthioate]
6.36
COCCc1ccc(OC(=O)/C(C)=C\CC23OC(C)(C)C4CC(C=C5C(=O)c6c(O)c7c(c(CC=C(C)C)c6OC542)OC(C)(CCC=C(C)C)C=C7)C3=O)cc1 (stereo not drawn) [Compound 18, 4-(2-Methoxyethyl)phenyl gambogate]
5.12
CC(C)=CCCC1(C)C=Cc2c(O)c3c(c(CC=C(C)C)c2O1)OC12C(=CC4CC1C(C)(C)OC2(C/C=C(/C)C(=O)Oc1ccc(C)c([N+](=O)[O-])c1)C4=O)C3=O (stereo not drawn) [Compound 1, 4-Methyl-3-nitrophenyl gambogate]
4.99

Record pIC50 per entry; entries follow.
1. CC(C)=CCCC1(C)C=Cc2c(O)c3c(c(CC=C(C)C)c2O1)OC12C(=CC4CC1C(C)(C)OC2(C/C=C(/C)C(=O)Oc1ccc(C=O)cc1)C4=O)C3=O (stereo not drawn) [Compound 20, 4-Formylphenyl gambogate]
2. CC(C)=CCCC1(C)C=Cc2c(O)c3c(c(CC=C(C)C)c2O1)OC12C(=CC4CC1C(C)(C)OC2(C/C=C(/C)C(=O)Oc1cccc(C=O)c1)C4=O)C3=O (stereo not drawn) [Compound 15, 3-Formylphenyl gambogate]
3. CC(C)=CCCC1(C)C=Cc2c(O)c3c(c(CC=C(C)C)c2O1)OC12C(=CC4CC1C(C)(C)OC2(C/C=C(/C)C(=O)Oc1ccc2ccc(=O)oc2c1)C4=O)C3=O (stereo not drawn) [Compound 7, Coumarin-7-gambogate]

1. 5.34
2. 5.21
3. 5.60
